Molecular target: human CCR6 (Homo sapiens, UniProt P51684)
Construct: expressed in transfected cells; host or cells: HEK-293
Sequence (P51684 whole entry): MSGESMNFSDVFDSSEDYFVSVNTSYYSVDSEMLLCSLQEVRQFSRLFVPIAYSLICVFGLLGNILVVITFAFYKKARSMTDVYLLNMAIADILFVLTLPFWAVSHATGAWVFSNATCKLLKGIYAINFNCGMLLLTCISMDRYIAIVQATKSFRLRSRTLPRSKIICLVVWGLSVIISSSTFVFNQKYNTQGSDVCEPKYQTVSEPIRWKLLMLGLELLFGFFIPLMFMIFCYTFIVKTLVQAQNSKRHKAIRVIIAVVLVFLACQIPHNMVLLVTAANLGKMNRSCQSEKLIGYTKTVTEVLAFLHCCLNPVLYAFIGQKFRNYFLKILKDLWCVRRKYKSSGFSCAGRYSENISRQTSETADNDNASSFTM
Experiment: FLIPR assay (inhibition of CCL20-induced calcium signal)
Type: cell-based
Conditions: HEK-293 cells expressing human CCR6; mean values where determined several times; read-out: FLIPR IC50
Protocol: FLIPR assay: The bioactivity of compounds is tested in a fluorometric imaging plate reader (FLIPR: Molecular Devices) using engineered HEK-293 cells expressing the human CCR6 (GenBank: AY242126). […] Changes in fluorescence are monitored before and after addition of the test compounds and agonist. […] The calculated IC50 values may fluctuate depending on the daily assay performance. […]
readout.label: IC50 (nM)

1) CC(C)c1ccc([C@](O)(c2cncc([C@H]3CCC(C)(O)C3)c2)C2(C)CN(C)C2)cc1 (stereo partly shown) [Example 296] ... 118
2) CC(C)c1ccc(C(O)(c2cncc(C(C)C)c2)C2(C)CN(C)C2)cc1 (stereo not shown) [Example 290] ... 100

I = CC(C)c1ccc([C@](O)(c2cncc(-c3noc(C(C)(C)C4CCOCC4)n3)c2)C2(C)CN(C)C2)cc1 [Example 127]
II = CC(C)c1ccc([C@](O)(c2cncc(-c3noc(C(C)(C)O)n3)c2)C2(F)CN(C3CC3)C2)cc1 [Example 446]
# input Please state the entry with greater IC50 among I and II . Returns: label corresponding to the selected item.
# output II
(II: 48.4 nM, I: 32.4 nM)
